Sourced from patent US10913773B2

Molecular target: TNFα-TNFR1 interaction (Homo sapiens, UniProt P01375)
Construct: made in house; host or cells: Escherichia coli (TNFα)
Assay: ELISA inhibition of TNFα-TNFR1 interaction (immobilized biotinylated TNFα, TNFR1-HRP)
Assay type: binding
Conditions: inhibition of TNFα-TNFR1 interaction, unlabeled peptides
Starred links: 1 amine or outer side, 2 acyl side, 3 side chain; linkers in the order of their positions; H or OH if unused. Positions of bridges follow the written chain, without caps; N, C: chain ends. Non-standard residues stand in square brackets, D forms with d. Residues, ends and D or L forms follow the SMILES beside them. Trimesoyl = O=C(c1cc(C(=O)[*:2])cc(C(=O)[*:3])c1)[*:1]; Nle = CCCC[C@H](N)C(=O)O; Dap = NC[C@H](N)C(=O)O; βAla = NCCC(=O)O
Attribute: IC50
Please state the figure in µM; there is no need to write the unit.

Record excerpt, results attached:
>  <compound>
CCCC[C@@H]1NC(=O)c2cc3cc(c2)C(=O)NC[C@@H](C(=O)NCCC(N)=O)NC(=O)[C@H](Cc2c[nH]cn2)NC(=O)[C@@H](CCCCN)NC(=O)CNC(=O)[C@@H](Cc2c[nH]cn2)NC(=O)[C@H](Cc2c[nH]c4ccccc24)NC(=O)[C@H](CCCCNC3=O)NC(=O)[C@@H](CO)NC(=O)[C@H](Cc2ccc(O)cc2)NC1=O [Compound C1-66] ([Nle]Y[dS]KW[dH]G[dK]H[Dap][βAla]-NH2; linker N-4-10 via Trimesoyl)

>  <IC50 [µM]>
0.085

$$$$
>  <compound>
CCCC[C@@H]1NC(=O)c2cc3cc(c2)C(=O)NC[C@@H](C(=O)NCCC(N)=O)NC(=O)[C@H](Cc2c[nH]cn2)NC(=O)[C@@H](CCCCN)NC(=O)CNC(=O)[C@@H](Cc2c[nH]cn2)NC(=O)[C@H](Cc2c[nH]c4ccccc24)NC(=O)[C@H](CCCCNC3=O)NC(=O)[C@@H](C)NC(=O)[C@H](Cc2ccc(O)cc2)NC1=O [Compound C1-74] ([Nle]Y[dA]KW[dH]G[dK]H[Dap][βAla]-NH2; linker N-4-10 via Trimesoyl)

>  <IC50 [µM]>
0.07

$$$$

Next, consider the following compound.
Q: // Input: CC(=O)[C@@H](Cc1ccccc1)NC(=O)[C@@H](C)NC(=O)C(N)Cc1ccc(F)c(F)c1 (stereo partly drawn) [Compound C1-74-3] . Output its IC50 only.
Ans: 0.15
